All figures here come from patent US20070218069A1.

# systemUnderTest: T1, K48-linked diubiquitin (human, UniProt P0CG48 1-76, isopeptide bond between Lys48 of one ubiquitin and the C-terminal Gly of the other)
# T1 construct: Boston Biochem
# testMethodNotes: SPR Biacore, antigen immobilized
propertyName: pKd
// pKd here means minus log10 of the molar concentration (mol/L)

binder	numericResult
Fab apu2.09 (Fab, V domains shown) VH: EVQLVESGGGLVQPGGSLRLSCAASGFNISYSSMHWVRQAPGKGLEWVASIYSYYSYTSYADSVKGRFTISADTSKNTAYLQMNSLRAEDTAVYYCARSYSYHVAFDYWGQGTLVTVSS VL: DIQMTQSPSSLSASVGDRVTITCRASQSVSSAVAWYQQKPGKAPKLLIYSASSLYSGVPSRFSGSRSGTDFTLTISSLQPEDFATYYCQQSSYSSLITFGQGTKVEIK	8.17
Fab apu2.07 (Fab, V domains shown) VH: EVQLVESGGGLVQPGGSLRLSCAASGFNISYSSMHWVRQAPGKGLEWVASIYSYYSYTSYADSVKGRFTISADTSKNTAYLQMNSLRAEDTAVYYCARSYSYHLGMDYWGQGTLVTVSS VL: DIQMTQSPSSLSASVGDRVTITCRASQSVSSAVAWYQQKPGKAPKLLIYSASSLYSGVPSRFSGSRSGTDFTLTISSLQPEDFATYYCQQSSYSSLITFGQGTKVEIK	8.93
Fab apu2.08 (Fab, V domains shown) VH: EVQLVESGGGLVQPGGSLRLSCAASGFNISYSSMHWVRQAPGKGLEWVASIYSYYSYTSYADSVKGRFTISADTSKNTAYLQMNSLRAEDTAVYYCARSYSYSVGMDYWGQGTLVTVSS VL: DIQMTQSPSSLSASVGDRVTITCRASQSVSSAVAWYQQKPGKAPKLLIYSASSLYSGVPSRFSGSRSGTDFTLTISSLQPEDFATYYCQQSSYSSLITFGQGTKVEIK	8.24
Fab apu2.03 (Fab, V domains shown) VH: EVQLVESGGGLVQPGGSLRLSCAASGFNISYSSMHWVRQAPGKGLEWVASIYSYYSYTSYADSVKGRFTISADTSKNTAYLQMNSLRAEDTAVYYCARSYSYSLAFDYWGQGTLVTVSS VL: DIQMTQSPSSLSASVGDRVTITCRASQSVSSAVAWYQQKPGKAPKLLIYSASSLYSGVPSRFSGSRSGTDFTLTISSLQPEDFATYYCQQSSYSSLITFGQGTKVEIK	8.51

Moving on to the next binder.
Provide pKd value for the following binder: Fab apu2.04 (Fab, V domains shown) VH: EVQLVESGGGLVQPGGSLRLSCAASGFNISYSSMHWVRQAPGKGLEWVASIYSYYSYTSYADSVKGRFTISADTSKNTAYLQMNSLRAEDTAVYYCARSYSYSFGMDYWGQGTLVTVSS VL: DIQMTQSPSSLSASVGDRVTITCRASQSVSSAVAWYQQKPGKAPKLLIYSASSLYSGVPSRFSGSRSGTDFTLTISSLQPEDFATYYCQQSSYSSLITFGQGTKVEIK
7.82
